src = ChEMBL document CHEMBL4342523

Target: Taste receptor type 2 member 14 (Homo sapiens, UniProt Q9NYV8)
Sequence (Q9NYV8 whole entry): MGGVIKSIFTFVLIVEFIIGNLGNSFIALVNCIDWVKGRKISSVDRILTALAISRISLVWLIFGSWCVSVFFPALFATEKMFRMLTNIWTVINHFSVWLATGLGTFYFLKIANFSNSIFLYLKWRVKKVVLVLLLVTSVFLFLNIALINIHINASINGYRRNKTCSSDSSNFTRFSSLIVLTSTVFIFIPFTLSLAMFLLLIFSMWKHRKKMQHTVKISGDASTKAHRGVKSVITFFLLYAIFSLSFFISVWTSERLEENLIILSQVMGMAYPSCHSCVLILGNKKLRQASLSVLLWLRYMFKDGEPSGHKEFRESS
Assay: Agonist activity at TAS2R14 (unknown origin) by stably expressed cell-based assay
parameter: EC50 (µM)
Reply with just the number (in µM).

Query :: Please tell me: EC50 of Cc1noc(C)c1Cn1cc(N2C(=O)CN(Cc3cccc(O)c3)C2=O)cn1 , system Taste receptor type 2 member 14 (Homo sapiens, UniProt Q9NYV8)?
Result :: 40

###

Assay: Stability of the compound in pH 5 buffer assessed as parent compound remaining measured after 24 hrs at room temperature
Format: physicochemical
Conditions: read-out: Stability
parameter: remaining at 24 h

Query :: Sample Cc1noc(C)c1Cn1cc(N2C(=O)CN(Cc3cccc(O)c3)C2=O)cn1 — what was its remaining at 24 h?
Result :: > 99%

###

Target: Taste receptor type 2 member 8 (Homo sapiens, UniProt Q9NYW2)
Test: Antagonist activity at recombinant human TAS2R8 stably expressed in cells co-expressing Galpha16gust44 assessed as inhibition of andrographolide-induced intracellular calcium level measured for 100 secs by fluo-4 dye based FLIPR assay
The entries below are paired with their reported log10(IC50).
Each number you see is log10 of IC50, and the unit inside the log is nM.

Known log10(IC50) results, listed for orientation:
{"columns": ["compound", "parameter", "val"],
 "data": [
  ["COc1cncc(C(=O)Nc2cnn(Cc3c(C)noc3C)c2)c1", "log10(IC50)", 2.90],
  ["Cc1noc(C)c1Cn1cc(N2C(=O)CN(Cc3ccccc3O)C2=O)cn1", "log10(IC50)", 2.00],
  ["Cc1noc(C)c1Cn1cc(NC(=O)c2cccc(O)c2)cn1", "log10(IC50)", 2.60],
  ["Cc1noc(C)c1Cn1cc(N2C(=O)N(Cc3cccc(O)c3)C3(CCC3)C2=O)cn1", "log10(IC50)", 1.60],
  ["Cc1noc(C)c1Cn1cc(NC(=O)c2ccc3ocnc3c2)cn1", "log10(IC50)", 3.48],
  ["Cc1noc(C)c1Cn1cc(N2C(=O)CN(Cc3ccc(O)cc3)C2=O)cn1", "log10(IC50)", 1.60],
  ["COc1ccc(C(=O)Nc2cnn(Cc3c(C)noc3C)c2)cc1OC", "log10(IC50)", 3.00],
  ["COc1ccccc1CN1CC(=O)N(c2cnn(Cc3c(C)noc3C)c2)C1=O", "log10(IC50)", 2.00],
  ["Cc1noc(C)c1Cn1cc(N2C(=O)N(Cc3cccc(O)c3)C(C)(CO)C2=O)cn1 (stereo unspecified)", "log10(IC50)", 2.00]
]}

Query :: Sample Cc1noc(C)c1Cn1cc(NC(=O)CCc2ccccc2)cn1 — what was its log10(IC50)?
Result :: 2.60

###

Biological target: Taste receptor type 2 member 8 (Homo sapiens)
Assay: Antagonist activity at recombinant human TAS2R8 stably expressed in cells co-expressing Galpha16gust44 assessed as inhibition of andrographolide-induced intracellular calcium level measured for 100 secs by fluo-4 dye based FLIPR assay
parameter: IC50 (µM)
Reply with just the number (in µM).

{"columns": ["compound", "unit", "IC50"],
 "data": [
  ["Cc1noc(C)c1Cn1cc(NC(=O)NCc2ccccc2)cn1", "µM", 1]
]}

Query :: Please tell me: IC50 of Cc1noc(C)c1Cn1cc(NC(=O)Cc2ccccc2)cn1 , system Taste receptor type 2 member 8 (Homo sapiens)?
Result :: 0.8

Query :: Please tell me: IC50 of Cc1noc(C)c1Cn1cc(N2C(=O)C(=O)N(Cc3ccccc3)C2=O)cn1 , system Taste receptor type 2 member 8 (Homo sapiens)?
Result :: 2

Query :: Please tell me: IC50 of Cc1noc(C)c1Cn1cc(NC(=O)Nc2ccccc2)cn1 , system Taste receptor type 2 member 8 (Homo sapiens)?
Result :: 2

Query :: Please tell me: IC50 of COc1cccc(C(=O)Nc2cnn(Cc3c(C)noc3C)c2)n1 , system Taste receptor type 2 member 8 (Homo sapiens)?
Result :: 0.7

Query :: Please tell me: IC50 of Cc1noc(C)c1Cn1cc(NC(=O)c2ccc3[nH]ccc3c2)cn1 , system Taste receptor type 2 member 8 (Homo sapiens)?
Result :: 0.3

Query :: Please tell me: IC50 of Cc1noc(C)c1Cn1cc(NC(=O)c2ccccn2)cn1 , system Taste receptor type 2 member 8 (Homo sapiens)?
Result :: 2.3

Query :: Please tell me: IC50 of Cc1noc(C)c1Cn1cc(NS(=O)(=O)c2ccccc2)cn1 , system Taste receptor type 2 member 8 (Homo sapiens)?
Result :: 4

###

Target: Taste receptor type 2 member 8 (Homo sapiens, UniProt Q9NYW2)
Sequence (Q9NYW2 whole entry): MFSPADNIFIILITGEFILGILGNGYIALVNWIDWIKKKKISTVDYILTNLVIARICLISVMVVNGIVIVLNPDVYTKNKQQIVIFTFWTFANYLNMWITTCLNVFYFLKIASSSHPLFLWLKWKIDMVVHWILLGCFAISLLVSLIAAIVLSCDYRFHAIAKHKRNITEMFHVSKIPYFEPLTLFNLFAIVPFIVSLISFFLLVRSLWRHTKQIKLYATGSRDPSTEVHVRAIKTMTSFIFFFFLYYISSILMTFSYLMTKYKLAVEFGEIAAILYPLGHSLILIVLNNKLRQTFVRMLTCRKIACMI
Assay: Antagonist activity at recombinant human TAS2R8 stably expressed in cells co-expressing Galpha16gust44 assessed as inhibition of andrographolide-induced intracellular calcium level measured for 100 secs by fluo-4 dye based FLIPR assay
The entries below are paired with their reported IC50.
Reply with just the number (in nM).

Known IC50 results, listed for orientation:
{"columns": ["molSmiles", "parameter", "val"],
 "data": [
  ["Cc1noc(C)c1Cn1cc(NC(=O)CCCc2ccccc2)cn1", "IC50", 800],
  ["CCSc1ncccc1C(=O)Nc1cnn(Cc2c(C)noc2C)c1", "IC50", 2300]
]}

Query :: Sample Cc1noc(C)c1Cn1cc(N2C(=O)CN(Cc3ccccc3F)C2=O)cn1 — what was its IC50?
Result :: 100

Query :: Sample Cc1noc(C)c1CN1CC(=O)N(c2cnn(Cc3c(C)noc3C)c2)C1=O — what was its IC50?
Result :: 400

Query :: Sample COc1ncccc1C(=O)Nc1cnn(Cc2c(C)noc2C)c1 — what was its IC50?
Result :: 1100

Query :: Sample Cc1noc(C)c1Cn1cc(N2C(=O)CNC2=O)cn1 — what was its IC50?
Result :: 900

Query :: Sample COc1ccc(C(=O)Nc2cnn(Cc3c(C)noc3C)c2)cc1 — what was its IC50?
Result :: 700

Query :: Sample Cc1cc(CN2CC(=O)N(c3cnn(Cc4c(C)noc4C)c3)C2=O)n(C)n1 — what was its IC50?
Result :: 200

Query :: Sample COc1ccccc1C(=O)Nc1cnn(Cc2c(C)noc2C)c1 — what was its IC50?
Result :: 1900

Query :: Sample Cc1noc(C)c1Cn1cc(NC(=O)c2ccc(O)cc2)cn1 — what was its IC50?
Result :: 500

###

Assay: Stability of the compound in pH 7.1 buffer assessed as parent compound remaining measured after 24 hrs at room temperature
Assay type: physicochemical
Conditions: read-out: Stability
parameter: remaining at 24 h

Query :: Sample Cc1noc(C)c1Cn1cc(N2C(=O)CN(Cc3cccc(O)c3)C2=O)cn1 — what was its remaining at 24 h?
Result :: > 99%

###

Experiment: Stability of the compound in pH 7.1 buffer assessed as parent compound remaining measured after 24 hrs at 100 degC
Assay type: physicochemical
Conditions: read-out: Stability
Friendly reminder: remaining at 24 h below 60% is Met, at or above is Not met.

Example results:
{"columns": ["compound", "classification"],
 "data": [
  ["Cc1noc(C)c1Cn1cc(N2C(=O)c3ccccc3C2=O)cn1", "Met"],
  ["Cc1noc(C)c1Cn1cc(N2C(=O)[C@H](CO)N(Cc3cccc(O)c3)C2=O)cn1", "Met"]
]}

Query :: Strictly below 60% in remaining at 24 h? Cc1noc(C)c1Cn1cc(N2C(=O)N(Cc3cccc(O)c3)C(C)(CO)C2=O)cn1 (stereo not given)
Result :: Met

Query :: Strictly below 60% in remaining at 24 h? Cc1noc(C)c1Cn1cc(N2C(=O)[C@H](C)N(Cc3cccc(O)c3)C2=O)cn1
Result :: Not met

###

Assay: Stability of the compound in pH 6 buffer assessed as parent compound remaining measured after 60 mins at 124 degC
Assay type: physicochemical
Conditions: read-out: Stability
parameter: remaining at 1 h

Query :: Sample Cc1noc(C)c1Cn1cc(N2C(=O)CN(Cc3cccc(O)c3)C2=O)cn1 — what was its remaining at 1 h?
Result :: > 99%

###

Test: Solubility of the compound in pH 7.1 buffer measured after 24 hrs
Format: physicochemical
The entries below are paired with their reported solubility at 24 h.
Reply with just the number (in µM).

Query :: Sample Cc1noc(C)c1Cn1cc(N2C(=O)[C@H](CO)N(Cc3cccc(O)c3)C2=O)cn1 — what was its solubility at 24 h?
Result :: 2480

###

Assay: Stability of the compound in pH 5 buffer assessed as parent compound remaining measured after 24 hrs at 100 degC
Type: physicochemical
Conditions: read-out: Stability
parameter: remaining at 24 h

Query :: Sample Cc1noc(C)c1Cn1cc(N2C(=O)CN(Cc3cccc(O)c3)C2=O)cn1 — what was its remaining at 24 h?
Result :: > 99%
